Source listed as the supplement of paper PMC9694430.

system: LOC_OS01G60700-cb002; assay: thermal shift delta Tm vs DMSO control; higher = stronger stabilization (binding); settings: 12.5 µM; protein concentration 2 µM;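 also: purified Escherichia coli-expressed rice kinase domain construct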
# label = label 1 if thermal shift delta Tm >= 1 °C else label 0

Query: Test whether the molecule COc1cc(F)c(F)c(Nc2ccc(I)cc2F)c1NS(=O)(=O)C1(C[C@H](O)CO)CC1 [Refametinib (RDEA119, Bay 86-9766)] records thermal shift delta Tm of 1 °C or higher.
Result: label 0

Query: Do the same for c1ccc(-c2[nH]ncc2-c2ccnc3ccccc23)nc1 please
Result: label 0

Query: Do the same for CC(C)n1ncnc1-c1cn2c(n1)-c1ccc(O[C@@H](C)C(N)=O)cc1OCC2 please
Result: label 1

Query: Do the same for NC1(c2ccc(-c3nc4ccn5c(=O)[nH]nc5c4cc3-c3ccccc3)cc2)CCC1 please
Result: label 1

Query: Do the same for O=C1c2c(O)cc(O)cc2OC(c2ccc(O)c(O)c2)C1O (stereo not given) [Taxifolin (Dihydroquercetin)] please
Result: label 0

----------
test system: LOC_OS01G39600-cb002; assay: thermal shift delta Tm vs DMSO control; higher = stronger stabilization (binding); settings: 12.5 µM; protein concentration 2 µM
Each entry below lists one item and its recorded thermal shift delta Tm value.
The answer is to be given in °C; state only the numeric part.

# smiles structure, thermal shift delta Tm / °C
rows = [
    ("C[C@H](CN(C)C)Oc1nc(Nc2cc3cccc(Cl)c3cn2)cnc1C#N", 0.03),
    ("N#CCNC(=O)c1ccc(-c2ccnc(Nc3ccc(N4CCOCC4)cc3)n2)cc1", 2.38),
    ("COc1cc(N2CCC(N(C)C)CC2)ccc1Nc1ncc(Cl)c(Nc2ccccc2P(C)(C)=O)n1", -6.92),
    ("COc1ccccc1-c1cc(Nc2cccc(CS(N)(=O)=O)c2)ncn1", -0.27),
    ("CNC(=O)c1cc(Oc2ccc(NC(=O)Nc3ccc(Cl)c(C(F)(F)F)c3)c(F)c2)ccn1", 0.21),
]

Field: next compound
Query: Please give the measured thermal shift delta Tm for this compound: Nc1nc(Nc2ccc(S(N)(=O)=O)cc2)nn1C(=O)c1c(F)cccc1F
Result: 4.79

----------
Each entry below lists one item and its recorded thermal shift delta Tm value.
tested on: LOC_OS01G48390-cb002; assay: thermal shift delta Tm vs DMSO control; higher = stronger stabilization (binding); conditions: 12.5 µM; protein concentration 2 µM
The answer is to be given in °C; state only the numeric part.

Known results for molecules:
# molecule, property label, result value
records = [
    ("c1ccc(-c2[nH]ncc2-c2ccnc3ccccc23)nc1", "thermal shift delta Tm", 0.11),
    ("O=S(=O)(c1cccc2c(I)cccc12)N1CCCNCC1", "thermal shift delta Tm", 1.35),
    ("O=C(c1ccc(F)c(F)c1Nc1ccc(I)cc1F)N1CC(O)([C@@H]2CCCCN2)C1 [Cobimetinib (GDC-0973, RG7420)]", "thermal shift delta Tm", 0.12),
    ("Cc1nc(Nc2ncc(C(=O)Nc3c(C)cccc3Cl)s2)cc(N2CCN(CCO)CC2)n1 [Dasatinib]", "thermal shift delta Tm", 0.6),
    ("Nc1ccc(-c2ccc3ncc4ccc(=O)n(-c5cccc(C(F)(F)F)c5)c4c3c2)cn1 [Torin 2]", "thermal shift delta Tm", 0.94),
    ("CN1CCC(COc2cnc(-c3cccc(Cn4nc(-c5cccc(C#N)c5)ccc4=O)c3)nc2)CC1", "thermal shift delta Tm", 0.2),
]

Query: Please give the measured thermal shift delta Tm for this molecule: C1=N/C2=N/c3ccc(OCCN4CCCC4)c(c3)COC/C=C/COCc3cccc(c3)C(=C1)N2 [Pacritinib (SB1518)]
Result: 2.71

Query: Do the same for C[C@@H]1CN(C(=O)c2ccc(NC(=O)c3cc(O[C@H](C)c4c(Cl)ccc(F)c4Cl)c(N)nn3)cc2)C[C@H](C)N1 [Ensartinib (X-396)] please
Result: 5.02

Query: Do the same for Cc1ccc(CNc2ncnc3ccc(-c4ccc(CO)o4)cc23)o1 please
Result: 0.79

Query: Do the same for CCOc1cn(-c2ccc(F)cc2C)nc1C(=O)Nc1ccc(Oc2ccnc3cc(OC)c(OC)cc23)c(F)c1 please
Result: 0.48
